Can you tell me normalized growth for the items I'm about to list?
Test: chemical genetic growth profiling, strain panel (AID 1159580);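 also: tested at 20 µM; growth read once vehicle control cultures reached saturation at 30 °C; 1 = growth at the plate median or of vehicle wells; lower values mean less growth of the strain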
Conditions: S. cerevisiae deletion strains, growth OD, locus YPR167C, strain met16, hits give low values
Among all 5,500 compounds or so, about 2,000 (36%) were called active. Not shown: some 18% with an inconclusive outcome. This is one part of the list.
Give bare numbers.

Study these solved cases before continuing.
INSERT INTO measurements (compound, meas_value) VALUES
  ('C=CCc1ccc(OC(=O)c2ccccc2)c(OC)c1', 0.943),
  ('C=C1C2CC[C@@]3(C)[C@H](c4ccoc4)OC(=O)C[C@]13O[C@H]1CC(=O)C(C)(C)[C@H](C(OC(C)=O)C(=O)OC)[C@@]21C (stereo partly drawn)', 0.999),
  ('c1ccc2c(c1)sc1ccccc12', 0.972),
  ('CCC[C@H](N[C@@H](C)C(=O)N1[C@H](C(=O)O)C[C@@H]2CCCC[C@@H]21)C(=O)OCC', 1.01);

# batch size: 7; output normalized growth per entry
1. NS(=O)(=O)c1cc2c(cc1Cl)NC=NS2(=O)=O
2. CN1CC(=O)N=C1N
3. CC(=O)S[C@@H]1CC2=CC(=O)CC[C@]2(C)[C@H]2CC[C@@]3(C)[C@@H](CC[C@@]34CCC(=O)O4)C12 (stereo partly drawn)
4. CC1(C)CCC[C@@]2(C)C1[C@@H](O)C[C@]1(C)C2CC[C@@H]2[C@@]3(C)CC[C@H](C(C)(C)O)[C@@H]3CC[C@@]21C (stereo partly drawn)
5. COc1ccc(C(=O)O)cc1OC
6. C=C[C@@](C)(O)CCC1C(=C)C[C@H](O)C2C(C)(C)CCCC12C (stereo partly drawn)
7. C[C@]12CCC(=O)C=C1C=CC1C2CC[C@@]2(C)C1CC[C@@]2(O)CCC(=O)O (stereo partly drawn)

1
0.979
1.03
0.989
1.02
1.02
0.995

State recorded normalized growth for all listed compounds.
1. COc1ccc2c(c1)OC/C(=C\c1ccc(OC)c(O)c1)C2=O
2. CCCCCCCCCCC[C@@H](C[C@H]1OC(=O)[C@H]1CCCCCC)OC(=O)[C@@H](CC(C)C)NC=O
3. COc1cc([C@@H]2c3cc4c(cc3C(OC3O[C@@H]5COC(C)O[C@H]5[C@H](O)[C@H]3O)C3COC(=O)[C@@H]32)OCO4)cc(OC)c1O (stereo partly drawn)

1: 0.811; 2: 1.01; 3: 1.01

Provide normalized growth values for the following items, in order.
1. C/C=C(\C)C(=O)O[C@H]1C[C@@H](OC(C)=O)[C@@]2(C(=O)OC)CO[C@@H]3C2[C@]12CO[C@](O)(C(=O)OC)[C@H]2[C@](C)(C12O[C@@]1(C)[C@H]1C[C@@H]2OC2OC=C[C@@]21O)[C@@H]3O (stereo partly drawn)
2. C=C[C@@](C)(O)CCC1C(=C)C[C@H](OC(C)=O)C2C(C)(C)CCCC12C (stereo partly drawn)

[0.978, 0.996]

Please supply normalized growth for each of the following items, keeping them in order.
1. Cc1ncc(CNC(=O)N(CCCl)N=O)c(N)n1
2. CCCCC[C@H]1C(=O)O[C@H](C)[C@H](NC(=O)c2cccc(NC=O)c2O)C(=O)O[C@@H](C)[C@@H]1OC(=O)CC(C)C

1: 0.982; 2: 0.939

Values were extracted from PubChem BioAssay AID1159580.
